# System: NCI/ADR-RES ovarian
# method: NCI-60 one-dose screen, 48 h
# test-context: 10 µM unless noted
About 83,000 compounds went through this panel and 20% of them were active in at least one assay; those are over-represented in the sample as a whole. Activity calls are given as the source filed them. How the source made its calls: active means growth percent below 10; inactive means the rest.
Outcome (select one): TRUE = active, FALSE = inactive

Example entries begin here.
{"molecule": "O=C(Nc1ccc2c(c1)OCCO2)C(=O)c1c[nH]c2ccccc12", "cat": "TRUE"}
{"molecule": "C=C(C)[C@@H]1CC[C@]2(C(=O)N3CCNCC3)CC[C@]3(C)[C@H](CC[C@@H]4[C@@]5(C)C/C(=C/c6ccncc6)C(=O)C(C)(C)[C@@H]5CC[C@]43C)[C@@H]12", "cat": "FALSE"}

Query :: Dear all, I need the recorded test outcome for COc1cc(C2NN=C3c4ccccc4CCC32)cc(OC)c1OC (stereo not given) , thank you.
Result :: FALSE

Query :: Dear all, I need the recorded test outcome for O=C1c2c(Cl)c(Cl)c(Cl)c(Cl)c2C(=O)C2(Cl)CC=CCC12Cl (stereo not given) , thank you.
Result :: FALSE

Query :: Dear all, I need the recorded test outcome for CC1CCC(C)N(C)C1 (stereo not given) , thank you.
Result :: FALSE

Query :: Dear all, I need the recorded test outcome for Cn1c(=O)c2[nH]c(C3CC=CCC3)nc2n(C)c1=O (stereo not given) , thank you.
Result :: FALSE

Query :: Dear all, I need the recorded test outcome for "CCCCCCCCN(CCCCCCCC)CCCCCCNc1cc(OC)cc2cccnc12" , thank you.
Result :: FALSE

Query :: Dear all, I need the recorded test outcome for "O=c1c2sc3ncccc3c2nnn1-c1ccccc1" , thank you.
Result :: FALSE

----------
Listed here are compounds together with their documented growth.
# Test system: PC-3 prostate
# method: NCI-60 one-dose screen, 48 h (100 = growth as untreated, 0 = no growth, -100 = all killed)
# test-context: 10 µM unless noted
The panel holds about 83,000 compounds, 20% with a hit somewhere; the sample as a whole holds those more often.
All answers are understood in %, so give the number only.

{"compound": "N=C(N)c1ccc(-c2ccc(-c3ccc4ccccc4c3)s2)cc1", "quantity-name": "growth", "observed": 91.6}

For this compound ( "COc1cc(-c2nn(-c3cccc(NC(=O)Nc4ccc(Cl)c(Cl)c4)c3)cc2-c2ccncc2)ccc1Cl" ), measured growth is -17.6

For this compound ( CCC(=O)OC1=CN2C(=NC(c3ccc(N)cc3)=CC2c2cc(OC)c(OC)c(OC)c2)S1 (stereo not given) ), measured growth is 49

For this compound ( "O=C(NNC(=S)Nc1ccccc1)c1cc2ccc1CCc1ccc(cc1)CC2" ), measured growth is 57.8

For this compound ( CCCCCCCCCCCCNC(=O)[C@H]1CSC(c2cc3ccccc3s2)N1 (stereo not given in full) ), measured growth is -17.4

----------
# Test system: MCF7 breast
# method: NCI-60 one-dose screen, 48 h (100 = growth as untreated, 0 = no growth, -100 = all killed)
# test-context: 10 µM unless noted
The panel holds about 83,000 compounds, 20% with a hit somewhere; the sample as a whole holds those more often.
Listed here are compounds together with their documented growth.
All answers are understood in %, so give the number only.

{"compound": "Cc1cc(N/N=C/c2nc(-c3ccccc3)oc2C)c2cc(Br)ccc2n1", "growth (%)": 46.2}
{"compound": "O=S1(=O)CCC(N(/N=C/c2ccco2)c2ccccc2)C1 (stereo not given)", "growth (%)": 96.4}
{"compound": "Cn1c(=O)c2[nH]c(C3CC=CCC3)nc2n(C)c1=O (stereo not given)", "growth (%)": 102}
{"compound": "CCOC(=O)C1=C(C)NC(C)=C(C(=O)OCC)C1(C)C", "growth (%)": 98.9}
{"compound": "O=C(NNC(=O)N1c2ccccc2C=Cc2ccccc21)c1ccc2ccccc2c1", "growth (%)": 86}
{"compound": "Oc1ccccc1/C=N/NC(=S)NC1CC2C=CC1C2 (stereo not given)", "growth (%)": 80.7}
{"compound": "c1ccc(Nc2nc(Nc3ccccc3)nc(Nc3ccccc3)n2)cc1", "growth (%)": 65}
{"compound": "COc1ccc(S(=O)(=O)n2cc(C(=O)C(=O)Nc3ccncc3)c3ccccc32)cc1F", "growth (%)": 69.8}

For this compound ( "CC(C)(C)n1cc(-c2ccnc(NCCNS(=O)(=O)c3ccc(C(F)(F)F)cc3)c2)c(-c2cccc(O)c2)n1" ), measured growth is 17.3

For this compound ( "COc1ccc(-c2nc(/C=C3/C(=O)Nc4ccc(F)cc43)c3ccccn23)cc1" ), measured growth is 48.7
